Provenance of the data: patent US10940139B2

Molecular target: KRas G12D/Q61H double mutant (Homo sapiens (Human), UniProt P01116, G12D/Q61H)
Sequence (P01116-2 other isoform, or with tags, fused parts or gaps G12D/Q61H): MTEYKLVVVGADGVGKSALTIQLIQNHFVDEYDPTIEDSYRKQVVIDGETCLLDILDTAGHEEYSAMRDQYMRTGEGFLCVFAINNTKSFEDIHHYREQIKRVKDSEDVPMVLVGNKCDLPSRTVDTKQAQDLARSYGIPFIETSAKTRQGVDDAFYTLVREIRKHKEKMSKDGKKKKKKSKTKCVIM
Test: Ras GTP binding domain inhibition assay (labeled GTP)
Conditions: 20 μM compound; read-out: % Inhibition at 20 μM KRas G12D Q61H
Recorded inhibition at 20 µM values for a group of compounds are listed next.

Cc1nc(C2CN(Cc3ccccc3F)CCO2)no1 (centres unmarked) | 25 to 50%
Cc1nc(CC(C)C)sc1C(=O)Nc1nnc(-c2ccccn2)[nH]1 | 1 to 25%
O=C(NCCc1ccnc(O)c1)c1csc2nc(-c3ccccn3)nc(N3CCOCC3)c12 [drawing 2783] | 1 to 25%

The compound listed as Nc1nc(O)c2scc(C(=O)N3CCN(c4ccncc4)CC3)c2n1 shows inhibition at 20 µM equal to 25 to 50%

The compound listed as COc1cc(N2CCN(C(=O)c3csc4c(O)nc(-c5ccccn5)nc34)CC2)ccc1O [drawing 2820] shows inhibition at 20 µM equal to 1 to 25%

---

Recorded inhibition at 20 µM values for a group of molecules are listed next.
Target: UniProt:P63000
Assay: Rac inhibition assay (labeled GTP)
Type: binding
Conditions: read-out: Rac-1 % Inh.

O=C(c1csc2c(O)nc(-c3ccccn3)nc12)N1CCN(c2ccc(F)cc2F)CC1 [drawing 3649] | 76 to 100%

The molecule listed as COc1cnc(-c2nccn2C)nc1O [drawing 3831] shows inhibition at 20 µM equal to 76 to 100%

---

Target: KRas Q61H mutant (Homo sapiens (Human), UniProt P01116, Q61H)
Sequence (P01116-2 other isoform, or with tags, fused parts or gaps Q61H): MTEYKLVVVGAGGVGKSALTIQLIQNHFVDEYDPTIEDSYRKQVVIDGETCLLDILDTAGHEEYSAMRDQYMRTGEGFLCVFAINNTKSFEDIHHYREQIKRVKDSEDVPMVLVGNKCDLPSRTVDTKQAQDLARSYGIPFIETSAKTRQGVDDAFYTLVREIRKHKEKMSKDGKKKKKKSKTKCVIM
Assay: Ras GTP binding domain inhibition assay (labeled GTP)
Conditions: 20 μM compound; read-out: % Inhibition at 20 μM KRas Q61H
Recorded inhibition at 20 µM values for a group of compounds are listed next.

Answered examples (5):
Cn1cc(C2CN(C(=O)c3csc4c(O)nc(-c5ccccn5)nc34)CCN2)cn1 (centres unmarked) [drawing 2777] | 51 to 75%
N#Cc1ccc2c(c1)CCCC2C(=O)Nc1ccnc(-c2ccccn2)n1 (centres unmarked) [drawing 2855] | 51 to 75%
O=C(c1csc2c(O)nc(-c3ccccn3)nc12)N1CCN(c2ccc(O)c(Cl)c2)CC1 [drawing 2803] | 51 to 75%
O=C(CCc1cncnc1)Nc1nc(-c2ccccn2)nc2sccc12 [drawing 2891] | 51 to 75%
Oc1nc(-c2ccccn2)nc2c(-c3ccnn3-c3ccccn3)csc12 [drawing 2904] | 25 to 50%

The compound listed as O=C(NCCc1ccnc(O)n1)c1csc2nc(-c3ccccn3)nc(N3CCOCC3)c12 [drawing 2898] shows inhibition at 20 µM equal to 51 to 75%

The compound listed as COc1cccc(CN2CCN(C(=O)c3csc4c(O)nc(-c5ccccn5)nc34)CC2)c1 [drawing 2763] shows inhibition at 20 µM equal to 76 to 100%

The compound listed as Cc1sc2c(N)nc(-c3ccccn3)nc2c1-c1ccccc1 [drawing 2837] shows inhibition at 20 µM equal to 1 to 25%

---

Test system: MIA-PACA2 pancreatic cancer cell lines
Assay: Cell proliferation assay (CellTiter 96 AQueous One)
Format: cell-based
Conditions: Homo sapiens, MIA PaCa-2; at 30 μM, MIA-PACA2
Recorded inhibition at 30 µM values for a group of compounds are listed next.

Answered examples (3):
O=C(Nc1nnc(-c2ccccn2)[nH]1)c1ccn(-c2cccc(F)c2)n1 [drawing 1397] | 76 to 100%
COC(=O)c1ccc(C(=O)NCC2(c3ccccc3OC)CCCC2)nc1 [drawing 1528] | 76 to 100%
COc1ncc(CCNC(=O)c2csc3nc(-c4ccccn4)nc(N4CCOCC4)c23)cn1 [drawing 1642] | 76 to 100%

The compound listed as NC(=O)C1(CNc2nc(-c3ccccn3)nc3c2CCC3)CCCC1 [drawing 1514] shows inhibition at 30 µM equal to 76 to 100%

The compound listed as COc1cnc(C2CCCN2)nc1O (stereo not drawn) [drawing 1792] shows inhibition at 30 µM equal to 51 to 75%

The compound listed as O=C(Nc1nnc(-c2ccccn2)[nH]1)C1Cc2cc(Cl)ccc2O1 (stereo not drawn) [drawing 1459] shows inhibition at 30 µM equal to 76 to 100%

The compound listed as COCC(C)Nc1nc(-c2ccccn2)nc2sc(C)c(-c3ccccc3)c12 (stereo not drawn) [drawing 1510] shows inhibition at 30 µM equal to 76 to 100%

The compound listed as O=C(CC1CCCC1)NCC(=O)Nc1nnc(-c2ccccn2)[nH]1 [drawing 1415] shows inhibition at 30 µM equal to 1 to 25%

The compound listed as Cc1sc2c(N)nc(-c3ccccn3)nc2c1Br [drawing 1769] shows inhibition at 30 µM equal to 76 to 100%

The compound listed as O=C(c1csc2c(O)nc(-c3ccccn3)nc12)N1CCOC(c2cccc(Cl)c2)C1 (stereo not drawn) [drawing 1663] shows inhibition at 30 µM equal to 76 to 100%

The compound listed as O=C(c1csc2c(O)nc(-c3ccccn3)nc12)N1CCOC(Cc2ccccc2)C1 (stereo not drawn) [drawing 1664] shows inhibition at 30 µM equal to 76 to 100%

The compound listed as Oc1nc(-c2ccccn2)nc2c(-c3ccccc3Cl)csc12 [drawing 1582] shows inhibition at 30 µM equal to 76 to 100%

The compound listed as COC(=O)c1cc2nc(-c3ccccn3)nc(O)c2s1 [drawing 1783] shows inhibition at 30 µM equal to 76 to 100%

The compound listed as Nc1nc(O)c2scc(C(=O)NCCc3cccnc3)c2n1 [drawing 1560] shows inhibition at 30 µM equal to 1 to 25%

The compound listed as O=C(NCCc1nnn[nH]1)c1csc2nc(-c3ccccn3)nc(N3CCOCC3)c12 [drawing 1679] shows inhibition at 30 µM equal to 51 to 75%

The compound listed as COCC1CCN(C(=O)c2csc3c(O)nc(-c4ccccn4)nc23)CC1 [drawing 1564] shows inhibition at 30 µM equal to 76 to 100%

The compound listed as CCOC(=O)NC1CCN(C(=O)c2csc3c(O)nc(-c4ccccn4)nc23)CC1 [drawing 1574] shows inhibition at 30 µM equal to 51 to 75%

The compound listed as O=C(CN1CCN(c2nc(-c3ccccn3)nc3scc(-c4ccccc4)c23)CC1)N1CCCCC1 [drawing 1611] shows inhibition at 30 µM equal to 76 to 100%

---

Target: KRas G12D mutant protein (Homo sapiens (Human), UniProt P01116, G12D)
Sequence (P01116-2 other isoform, or with tags, fused parts or gaps G12D): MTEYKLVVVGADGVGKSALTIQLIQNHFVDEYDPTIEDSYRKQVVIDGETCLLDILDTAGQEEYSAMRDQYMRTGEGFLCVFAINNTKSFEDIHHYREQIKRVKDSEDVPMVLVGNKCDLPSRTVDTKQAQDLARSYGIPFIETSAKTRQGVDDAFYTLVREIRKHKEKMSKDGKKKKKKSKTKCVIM
Experiment: Ras GTP binding domain inhibition assay (labeled GTP)
Conditions: 20 μM compound; KRas G12D; read-out: % Inhibition at 20 μM of K-Ras mutant and wild-type protein, KRas G12D
Quantity Name: inhibition at 20 µM

The molecule listed as CC(C)COc1ccc(-c2csc3c(O)nc(-c4nccn4C)nc23)cn1 [drawing 3612] shows inhibition at 20 µM equal to 76 to 100%

The molecule listed as COCCCNc1nc(-c2nccn2C)nc2sc(-c3ccccc3)c(-c3ccccc3)c12 [drawing 3570] shows inhibition at 20 µM equal to 51 to 75%

---

Tested on: MAPK phosphorylation in PANC-1 pancreatic cancer cell line
Test: MAPK cell-based phosphorylation assay (cell-direct ELISA, EGF stimulation)
Conditions: Homo sapiens, at 30 μM
Quantity Name: inhibition at 30 µM

COc1ccc2c(c1)CCC2C(=O)Nc1ccnc(-c2ccccn2)n1 (stereo not drawn) [drawing 1159] | 1 to 25%
Cc1ccccc1C1CN(C(=O)c2csc3c(O)nc(-c4ccccn4)nc23)CCN1 (stereo not drawn) [drawing 1152] | 1 to 25%
O=C(CCNC(=O)c1ccco1)Nc1nnc(-c2ccccn2)[nH]1 [drawing 1011] | 1 to 25%
CSc1nc(C2CC2)cc(C(=O)NCCc2ccc(S(=O)(=O)NC(=O)c3cc(C4CC4)nc(SC)c3C#N)cc2)c1C#N [drawing 1055] | 76 to 100%
O=C(Nc1nnc(-c2ccccn2)[nH]1)C1CCN(C(=O)c2cccs2)CC1 [drawing 1027] | 1 to 25%

The compound listed as Oc1nc(-c2ccccn2)nc2sccc12 [drawing 1081] shows inhibition at 30 µM equal to 1 to 25%

The compound listed as CS(=O)(=O)Cc1ccc(C(=O)Nc2nc(-c3ccccn3)cs2)cc1 [drawing 1029] shows inhibition at 30 µM equal to 1 to 25%

The compound listed as COCCC(C)Nc1nc(-c2ccccn2)nc2sccc12 (stereo not drawn) [drawing 1115] shows inhibition at 30 µM equal to 25 to 50%

The compound listed as CCc1cc(NNC(=O)c2ccc(C#N)cc2)nc(-c2ccccn2)n1 [drawing 1041] shows inhibition at 30 µM equal to 76 to 100%

The compound listed as c1ccc(-c2csc3nc(-c4ccccn4)nc(N4CCN(Cc5cccnc5)CC4)c23)cc1 [drawing 1087] shows inhibition at 30 µM equal to 1 to 25%

The compound listed as O=C(c1csc2c(O)nc(-c3ccccn3)nc12)N1CCN(c2ccccc2)CC1 [drawing 1068] shows inhibition at 30 µM equal to 76 to 100%

The compound listed as O=C(CCc1cnn(-c2ccccc2)c1)Nc1nnc(-c2ccccn2)[nH]1 [drawing 992] shows inhibition at 30 µM equal to 25 to 50%

The compound listed as O=C(c1csc2c(O)nc(-c3ccccn3)nc12)N1CCN(Cc2ccccc2)CC1 [drawing 1144] shows inhibition at 30 µM equal to 1 to 25%

The compound listed as COc1ccc(C2CN(C(=O)c3csc4c(O)nc(-c5ccccn5)nc34)CCN2)cc1 (stereo not drawn) [drawing 1151] shows inhibition at 30 µM equal to 25 to 50%

The compound listed as Clc1csc2nc(-c3ccccn3)nc(N3CCOCC3)c12 [drawing 1113] shows inhibition at 30 µM equal to 1 to 25%

The compound listed as Oc1nc(-c2ccccn2)nc2c(-c3ccccc3)csc12 [drawing 1074] shows inhibition at 30 µM equal to 76 to 100%

The compound listed as O=C(c1csc2c(O)nc(-c3ccccn3)nc12)N1CCOC(c2ccccc2Cl)C1 (stereo not drawn) [drawing 1149] shows inhibition at 30 µM equal to 1 to 25%

The compound listed as O=C(c1csc2c(O)nc(-c3ccccn3)nc12)N1CCNC(c2ccc(F)cc2)C1 (stereo not drawn) [drawing 1167] shows inhibition at 30 µM equal to 1 to 25%
